# credit: ChEMBL document CHEMBL1128536

- Experimental Target: UniProtKB P00533
- Sequence (P00533 whole entry): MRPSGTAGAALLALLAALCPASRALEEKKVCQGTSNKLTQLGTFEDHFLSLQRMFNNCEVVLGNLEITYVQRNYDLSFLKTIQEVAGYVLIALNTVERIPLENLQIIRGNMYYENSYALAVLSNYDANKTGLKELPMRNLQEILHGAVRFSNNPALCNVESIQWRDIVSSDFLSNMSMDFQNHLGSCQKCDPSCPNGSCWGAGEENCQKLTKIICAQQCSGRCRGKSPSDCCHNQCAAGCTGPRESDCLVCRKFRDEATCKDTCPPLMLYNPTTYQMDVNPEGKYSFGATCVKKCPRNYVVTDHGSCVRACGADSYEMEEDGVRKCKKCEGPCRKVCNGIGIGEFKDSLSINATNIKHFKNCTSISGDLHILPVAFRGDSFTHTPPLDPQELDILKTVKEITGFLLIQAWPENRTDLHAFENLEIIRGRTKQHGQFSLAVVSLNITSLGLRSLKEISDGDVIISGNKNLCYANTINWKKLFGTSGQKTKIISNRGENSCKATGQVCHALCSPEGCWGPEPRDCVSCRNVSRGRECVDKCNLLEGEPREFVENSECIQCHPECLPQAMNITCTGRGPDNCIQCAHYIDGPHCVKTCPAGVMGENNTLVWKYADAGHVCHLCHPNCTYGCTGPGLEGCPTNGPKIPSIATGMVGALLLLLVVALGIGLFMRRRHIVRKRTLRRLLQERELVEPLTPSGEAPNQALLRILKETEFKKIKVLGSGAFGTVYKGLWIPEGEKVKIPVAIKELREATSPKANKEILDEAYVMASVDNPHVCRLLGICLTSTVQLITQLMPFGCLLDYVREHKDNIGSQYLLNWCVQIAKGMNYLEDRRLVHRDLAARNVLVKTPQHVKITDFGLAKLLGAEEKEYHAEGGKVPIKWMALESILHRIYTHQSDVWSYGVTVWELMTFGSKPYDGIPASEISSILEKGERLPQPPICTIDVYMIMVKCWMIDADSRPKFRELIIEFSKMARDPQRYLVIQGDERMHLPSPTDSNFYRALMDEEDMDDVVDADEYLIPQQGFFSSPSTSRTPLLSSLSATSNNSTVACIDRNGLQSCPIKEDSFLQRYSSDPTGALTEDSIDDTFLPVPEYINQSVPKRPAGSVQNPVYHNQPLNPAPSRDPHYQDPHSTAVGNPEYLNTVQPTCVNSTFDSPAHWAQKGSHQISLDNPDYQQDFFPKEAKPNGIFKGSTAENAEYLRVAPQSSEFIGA
- Test Protocol: Inhibition of Epidermal growth factor receptor from A431 cells
pIC50: −log10 of the molar value.
Endpoint: pIC50

| Line Notation | Rel | Test Value |
| --- | --- | --- |
| O=[N+]([O-])c1cccc2ncnc(Nc3cccc(Br)c3)c12 | = | 6.45 |
| Nc1cccc2c(NCc3ccccc3)ncnc12 | < | 5.00 |
| Oc1cc2ncnc(Nc3cccc(Br)c3)c2cc1O | = | 9.77 |
| COc1cccc2c(Nc3cccc(Br)c3)ncnc12 | = | 6.01 |
| O=[N+]([O-])c1cccc2c(NCc3ccccc3)ncnc12 | < | 5.00 |
| c1ccc(CNc2ncnc3ccccc23)cc1 | = | 6.49 |
